IC50 values by entry
tested on: human platelet rich plasma (PRP); assay: ADP induced platelet aggregation assay; conditions: Homo sapiens, Platelet, 5 min, read-out: PA IC50 (μM) @ 10 μM ADP, human PRP, 10 μM ADP, AUC at 5 minute
Please reply with the bare figure in µM and do not write the unit itself.

The examples below pair each entry with its known result.
CC1(C)CN(c2ccccc2NC(=O)Nc2ccc(OC(F)(F)F)cc2)c2c(O)cc(F)c(-c3cccc(Cl)c3)c21 | 0.23
CC(C)n1nc(-c2c(F)cc(O)c3c2C(C)(C)CN3c2ccccc2NC(=O)Nc2csc(Cl)n2)cc1C(F)(F)F | 0.05
CC1(C)CN(c2ccccc2NC(=O)Nc2ccc(OC(F)(F)F)cc2)c2c(O)c(F)cc(-c3ccccc3)c21 | 0.3
CC1(C)CN(c2ccccc2NC(=O)Nc2ccc(OC(F)(F)F)cc2)c2c(O)cc(F)c(-c3ccc(C(F)(F)F)cn3)c21 | 0.11
CC1(C)CN(c2ccccc2NC(=O)Nc2ccc(OC(F)(F)F)cc2)c2c(O)ccc(-c3ccc(F)cn3)c21 | 0.43
CC(C)(C)c1nc(-c2c(F)cc(O)c3c2C(C)(C)CN3c2ccccc2NC(=O)Nc2ccc(OC(F)(F)F)cc2)no1 | 0.21
CC1(C)CN(c2ccccc2NC(=O)Nc2nc3ccc(F)nc3s2)c2c(O)cc(F)c(-c3nc4cc(F)ccc4s3)c21 | 0.51
CCC1(CC)CN(c2ccccc2NC(=O)Nc2ccc(C(C)(C)C)cc2)c2c(O)ccc(C#N)c21 | 0.45
CCC1(CC)CN(c2ccccc2NC(=O)Nc2nc3ccc(F)cc3s2)c2c(O)ccc(Cl)c21 | 0.18
CCC1(CC)CN(c2ccccc2NC(=O)Nc2ccc(C3CCCN3CC(C)C)cc2)c2c(O)ccc(F)c21 (centres unmarked) | 0.28

Request the reported IC50 associated with CC1(C)CN(c2ccccc2NC(=O)Nc2nc3ccc(Cl)nc3s2)c2c(O)ccc(-c3nc4cc(F)ccc4s3)c21 0.5

Which IC50 value is on record for CC(C)c1nc(-c2ccc(O)c3c2C(C)(C)CN3c2ccccc2NC(=O)Nc2ccc(OC(F)(F)F)cc2)cs1 ? 0.28

Record request: IC50 value, item CC1(C)CN(c2ccccc2NC(=O)Nc2ccc(OC(F)(F)F)cc2)c2c(O)cc(F)c(-c3ccnc(F)c3)c21 0.48

Which measured IC50 value corresponds to CC1(C)CN(c2ccccc2NC(=O)Nc2csc(C(F)(F)F)n2)c2c(O)cc(F)c(-c3ccc(F)cc3)c21 ? 0.3

Entry under review: CC1(C)CN(c2ccccc2NC(=O)Nc2ccc(OC(F)(F)F)cc2)c2c(O)c(F)cc(-c3nc4cc(Cl)ccc4s3)c21 . Reported IC50? 2.3

Which IC50 reading was recorded for the compound Cc1cccc2nc(-c3ccc(O)c4c3C(C)(C)CN4c3ccccc3NC(=O)Nc3ccc(OC(F)(F)F)cc3)oc12 ? 0.8

What value of IC50 has been recorded for this entry: CC1(C)CN(c2ccccc2NC(=O)Nc2ccc(OC(F)(F)F)cc2)c2c(O)ccc(-c3nc4ccc(Cl)cc4o3)c21 0.33

Given the compound CC1(C)CN(c2ccccc2NC(=O)Nc2ccc(OC(F)(F)F)cc2)c2c(O)cc(F)c(-c3ncc(F)cn3)c21 , what is its reported IC50? 0.95

Dear colleague, I am looking for the recorded IC50 of the following compound: Cn1nc(C(F)(F)F)cc1-c1c(F)cc(O)c2c1C(C)(C)CN2c1ccccc1NC(=O)Nc1ccc(OC(F)(F)F)cc1 0.21

Report IC50 for CC1(C)CN(c2ccccc2NC(=O)Nc2ccc(F)cc2F)c2c(O)ccc(C(F)(F)F)c21 please. 0.48

---

target: cloned human P2Y1 receptors (Homo sapiens (Human), UniProt P47900); experiment: Binding Assay B - Scintillation Proximity Assay (SPA) for P2Y1 binding, [33P] 2MeS-ADP; conditions: SPA, 0.3 nM [33P] 2MeS-ADP, Cheng-Prusoff; read-out: P2Y1 Ki (nM) using binding assay B
Sequence (P47900 whole entry): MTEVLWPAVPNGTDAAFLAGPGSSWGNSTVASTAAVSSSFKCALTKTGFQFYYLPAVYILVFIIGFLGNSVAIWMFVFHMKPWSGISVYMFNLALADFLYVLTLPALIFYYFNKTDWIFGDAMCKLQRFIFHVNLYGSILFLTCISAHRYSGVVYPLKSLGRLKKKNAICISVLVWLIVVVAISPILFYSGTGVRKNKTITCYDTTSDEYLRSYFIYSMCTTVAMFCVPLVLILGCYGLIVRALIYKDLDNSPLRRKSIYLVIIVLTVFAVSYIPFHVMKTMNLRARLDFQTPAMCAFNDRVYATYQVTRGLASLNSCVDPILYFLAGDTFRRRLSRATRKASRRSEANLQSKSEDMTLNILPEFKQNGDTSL
I'd appreciate it if you could label each record using Ki and these ranges: 0 = under 10 nM, 1 = from 10 nM up to 30 nM, 2 = 30 nM and over

In plain terms, what class is CC1(C)CN(c2ccccc2NC(=O)Nc2ccc(OC(F)(F)F)cc2)c2c(O)ccc(-c3ccncc3Cl)c21 [Example 114] ? 1

# bin lookup: classify CC1(C)CN(c2ccccc2NC(=O)Nc2ccc(OC(F)(F)F)cc2)c2c(O)cc(F)c(-c3ccc(F)cn3)c21 [Example 159] by its Ki 0

Note: place this compound into its band. Item: Cc1cnc2oc(-c3ccc(O)c4c3C(C)(C)CN4c3ccccc3NC(=O)Nc3ccc(OC(F)(F)F)cc3)nc2c1 [Example 102] 1

The entry to classify is CC1(C)CN(c2ccccc2NC(=O)Nc2nc3ccc(Cl)cc3s2)c2c(O)ccc(-c3nc4ccc(F)cc4s3)c21 [Example 128] ; which class holds it? 2

Looking at CC1(C)CN(c2ccccc2NC(=O)Nc2ccc(OC(F)(F)F)cc2)c2c(O)ccc(-c3cncc(F)c3)c21 [Example 117] , which class would you pick? 2

State the band of CCOC(=O)C1(C)CN(c2ccccc2NC(=O)Nc2nc3ccc(F)cc3s2)c2c(O)ccc(Cl)c21 (centres unmarked) [Example 76] 1

Which category fits this record: CC1(C)CN(c2ccccc2NC(=O)Nc2nc3ccc(F)cc3s2)c2c(O)cc(F)c(-c3ccc(Cl)cc3)c21 [Example 224] 1

Tag the class for CC(C)(C)Sc1ccc(O)c2c1C(C)(C)CN2c1ccccc1NC(=O)Nc1ccc(OC(F)(F)F)cc1 [Example 72] 2

# classify by Ki band: CCC1(CC)CN(c2ccccc2NC(=O)Nc2ccc(OC(F)(F)F)cc2)c2c(O)ccc(Br)c21 [Example 39] 1

Place this compound in its band: CC1(C)CN(c2ccccc2NC(=O)Nc2ccc(OC(F)(F)F)cc2)c2c(O)ccc(-c3ccc(Cl)s3)c21 [Example 121] 2

Into which bin does this compound go? CCC1(CC)CN(c2ccccc2NC(=O)Nc2ccc(C3CCN(CC(C)(C)C)CC3)cc2)c2c(O)ccc(F)c21 [Example 4] 0

---

biological target: UniProt:P47900; assay: Binding Assay B - Scintillation Proximity Assay (SPA) for P2Y1 binding, [33P] 2MeS-ADP; details: SPA, 0.3 nM [33P] 2MeS-ADP, Cheng-Prusoff; read-out: P2Y1 Ki (nM) using binding assay B
ASSAY METRIC: Ki (nM)
A number alone suffices; assume nM.

Below, 2 compounds whose answers are already recorded.
CC1(C)CN(c2ccccc2NC(=O)Nc2csc(Cl)n2)c2c(O)cc(F)c(-c3nc4cc(F)ccc4s3)c21 [Example 181] | 9.7
CC1(C)CN(c2ccccc2NC(=O)Nc2csc(C(F)(F)F)n2)c2c(O)ccc(-c3ccc(F)cc3)c21 [Example 208] | 11.4

Which Ki is reported with UniProt:P47900 for this entry: CC(C)(C)c1nc(-c2c(F)cc(O)c3c2C(C)(C)CN3c2ccccc2NC(=O)Nc2nc3ccc(F)cc3s2)co1 [Example 254] ? 13.7

Record lookup: for UniProt:P47900, what Ki belongs to CC1(C)CN(c2ccccc2NC(=O)Nc2ccc(OC(F)(F)F)cc2)c2c(O)cc(F)c(-c3ccc(F)cc3)c21 [Example 194] ? 6.7

---

tested on: human platelet rich plasma (PRP); assay: ADP induced platelet aggregation assay; details: Homo sapiens, Platelet, 5 min, read-out: PA IC50 (μM) @ 10 μM ADP, human PRP, 10 μM ADP, AUC at 5 minute
ASSAY METRIC: IC50 (µM)
Quick note: give the figure in µM, leave out the unit.

// known answers, use as guide
CC1(C)CN(c2ccccc2NC(=O)Nc2nc3ccc(Cl)cc3s2)c2c(O)cc(F)c(-c3cc(C(F)(F)F)no3)c21 [Example 265] | 0.4
CCC1(CC)CN(c2ccccc2NC(=O)Nc2ccc(OC(F)(F)F)cc2)c2c1ccc(F)c2O [Example 35] | 0.38
CCC1(CC)CN(c2ccccc2NC(=O)Nc2ccc(C3CCN(CC(C)C)CC3)cc2)c2c(O)ccc(C#N)c21 [Example 46] | 1

Query (compound): CC1(C)CN(c2ccccc2NC(=O)Nc2ccc(OC(F)(F)F)cc2)c2c(O)ccc(-c3ccncc3)c21 [Example 113] ; field requested: IC50 0.35

Entry under review: CC(C)(C)CN1CCC(c2ccc(NC(=O)Nc3ccccc3N3CC(C)(C)c4c(C(F)(F)F)ccc(O)c43)cc2)CC1 [Example 2] . Reported IC50? 0.13

Name the reported IC50 value associated with the compound CC1(C)CN(c2ccccc2NC(=O)Nc2ccc(OC(F)(F)F)cc2)c2c(O)ccc(-c3cnc(Cl)cn3)c21 [Example 131] 0.42

GET /values?readout=IC50&item= Cc1ccc2nc(-c3ccc(O)c4c3C(C)(C)CN4c3ccccc3NC(=O)Nc3ccc(OC(F)(F)F)cc3)oc2c1 [Example 95] 0.46

---

target: cloned human P2Y1 receptors (Homo sapiens (Human), UniProt P47900); test: Binding Assay B - Scintillation Proximity Assay (SPA) for P2Y1 binding, [33P] 2MeS-ADP; settings: SPA, 0.3 nM [33P] 2MeS-ADP, Cheng-Prusoff; read-out: P2Y1 Ki (nM) using binding assay B
ASSAY METRIC: Ki (nM)
Write the answer as a number in nM, unit excluded.

Illustrative cases are given below, each with its answer.
Cc1nn(C)c(C)c1-c1c(F)cc(O)c2c1C(C)(C)CN2c1ccccc1NC(=O)Nc1ccc(OC(F)(F)F)cc1 [Example 187] | 19.2
CCC1(CC)CN(c2ccccc2NC(=O)Nc2ccc(OC(F)(F)F)cc2)c2c(O)cc(F)cc21 [Example 5] | 16
CCC1(CC)CN(c2ccccc2NC(=O)Nc2ccc(C3CCCN3CC(C)C)cc2)c2c(O)cccc21 (stereo not shown) [Example 8] | 18.6
CC1(C)CN(c2ccccc2NC(=O)Nc2ccc(OC(F)(F)F)cc2)c2c(O)ccc(C#N)c21 [Example 47] | 18.6
CC1(C)CN(c2ccccc2NC(=O)Nc2ccc(OC(F)(F)F)cc2)c2c(O)ccc(C3=NCC(C(F)(F)F)O3)c21 (stereo not shown) [Example 105] | 8.8

Give the reported Ki for CC1(C)CN(c2ccccc2NC(=O)Nc2ccc(OC(F)(F)F)cc2)c2c(O)cc(F)c(-c3ccc(Cl)cc3)c21 [Example 214] (system: cloned human P2Y1 receptors (Homo sapiens (Human), UniProt P47900)). 13.7

Please tell me: Ki of CC1(C)CN(c2ccccc2NC(=O)Nc2ccc(OC(F)(F)F)cc2)c2c(O)ccc(-c3cnc(Cl)cn3)c21 [Example 131] , system cloned human P2Y1 receptors (Homo sapiens (Human), UniProt P47900)? 9.1
